These entries and their values trace back to the Deep4Chem optical property database.

assay.explanation: solvent given as SMILES
condition.parameters: in Cc1ccccc1
measure: absorption maximum (nm)
One number for each entry, in nm.

Fill in absorption maximum for each of the 8 compounds listed.
1. CCn1c2ccccc2c2cc(-c3cc(-c4ccc5c(c4)c4ccccc4n5CC)nc(S(C)(=O)=O)n3)ccc21
2. N#Cc1ccc(N)c2nonc12
3. CCC1(CC)c2cc(B(c3c(C)cc(C)cc3C)c3c(C)cc(C)cc3C)ccc2-c2ccc(N(c3ccccc3)c3ccc4c(c3)C(CC)(CC)c3cc(B(c5c(C)cc(C)cc5C)c5c(C)cc(C)cc5C)ccc3-4)cc21
4. Cc1ccc(C2=C3C=CC(C#Cc4ccccc4)=[N+]3[B-](F)(F)n3c(Cl)ccc32)cc1
5. c1ccc(Cn2c3sccc3c3c4nsnc4c4c5ccsc5n(Cc5ccccc5)c4c32)cc1
6. CC(C)(C)c1ccc(-c2nc3c4ccc(-c5ccccc5)cc4c4cc(-c5ccccc5)ccc4c3n2-c2ccc(C(C)(C)C)cc2)cc1
7. COc1ccc2c(c1)c1cc(OC)ccc1n2-c1ccc(S(=O)(=O)c2ccc(-n3c4ccc(OC)cc4c4cc(OC)ccc43)cc2)cc1
8. N#Cc1ccc2c(c1)CCc1nc(-c3ccc([N+](=O)[O-])cc3)c3c(c1-2)CCc1cc(C#N)ccc1-3

stdout:
1: 382; 2: 409; 3: 424; 4: 566; 5: 424; 6: 333; 7: 369.69; 8: 343
